System: OVCAR-8 ovarian
protocolSummary: NCI-60 one-dose screen, 48 h (100 = growth as untreated, 0 = no growth, -100 = all killed)
conditionDescription: 10 µM unless noted
Compounds without any hit were thinned out: in the full panel of roughly 83,000, 20% have a hit.
recordedMetric: growth (%)
Give a bare numeral; the unit % is implied.

Some compounds with recorded growth:
Cc1oc2ncnc(Nc3ccccc3)c2c1C(=O)NCCO | 113
O=C1NC(Cc2c[nH]c3ccccc23)C(=O)N1Cc1ccc(Cl)cc1 (configuration not stated) | 97.9
Cc1cc(C(=O)O)c(N)c(C)n1 | 112
O=C(O)c1cccc([N+](=O)[O-])c1/C=C/c1ccccc1 | 115
C=C1C(=O)O[C@H]2[C@H]1CC/C(COC(=O)NCCc1ccc(OC)cc1)=C\CC[C@@]1(C)O[C@@H]21 | 2.7
CC(=O)Nc1ccc(S(=O)(=O)N2C(=O)CCC2C(=O)Nc2ccccc2)cc1 (configuration not stated) | 40.4
CCn1c(=O)c2c(=O)c3c4c(oc3oc2c2ccccc21)C(=O)c1ccccc1C4=O | 10.2
COc1cc2c3c(c(=O)oc2cc1OS(=O)(=O)c1ccc(C(F)(F)F)cc1)CCCCC3 | 93.8

// lookup growth for COc1cc(C(=O)N2CCN(C(=O)c3ccco3)CC2)c(N)cc1OCc1ccccc1 99.8

Could you share which growth value was measured for Cc1ccc(Cn2c(-c3nonc3N)nc3ccccc32)cc1 ? 88.3

Form field: reported growth of CCCCCCCC/C=C\CCCCCCCCOc1ccccc1CCOP(=O)(O)OCC[N+](C)(C)C 60.3

What does the data say about its growth? Entry: CCCCCc1c(C)[nH]c(/C=c2\[nH]/c(=C3/C=c4ccccc4=N3)cc2OC)c1C -41.9

Data request, read-out growth, for CCCCCC(=O)OCc1ccccc1 102

Which measured growth value corresponds to COc1ccc(NC(=O)c2cc3ccccc3nc2Nc2cc(OC)c(OC)c(OC)c2)cc1 ? 41.9

Please look up its growth: O=C(CCCn1c(=O)c2sc3ccccc3c2n2nnc(-c3ccccc3)c12)NCCc1cnc[nH]1 -28.5

Name the recorded growth for Cc1cc(Nc2nc(C(=O)Nc3ccccc3)nc3ccccc23)n[nH]1 . 75.6

growth for COc1ncc(-c2ccc3ncnc(Nc4cccc(Cl)c4)c3c2)cc1NS(=O)(=O)C1CC1 ? 41.7

Item Cc1ccc(C2=NN(c3ccc(S(=O)(=O)NC(=O)NCc4ccccc4)cc3)C(c3ccc(N(C)C)cc3)C2)c(C)c1 (configuration not stated) has what recorded growth? 30.6

Requested read-out: growth. Entry: COc1cc(C(=O)CCCl)ccc1O 102

growth lookup needed for Cc1ccc(-c2csc3nc(C)c(CCCl)c(=O)n23)cc1 , thanks. 103

If you can, please state the reported growth value of COC12CC(=O)C(C(C)=O)=C(O)C1(C)c1c(O)c(C)c(O)c(C(C)=O)c1O2 (configuration not stated) . 58.7

Entry c1ccn2nnnc2c1 has what growth? 105

---

System: UACC-257 melanoma
protocolSummary: NCI-60 one-dose screen, 48 h
conditionDescription: 10 µM
The panel holds about 83,000 compounds, 20% with a hit somewhere; the sample as a whole holds those more often. The source made the active and inactive calls. How the source made its calls: active means growth percent below 10; inactive means the rest.
API: response.call in 1 (active), -1 (inactive)

Examples from the recorded data:
COc1cc(C(=O)OCCCCCCCCCCC[P+](c2ccccc2)(c2ccccc2)c2ccccc2)ccc1O | 1
COc1ccc(/C=C2\C(=O)N(C(=O)c3csc(NC(C)=O)n3)N=C2C)cc1 | -1
Clc1ccc2c(c1)NC1(CCSc3ccccc31)n1nccc1-2 (centres undefined) | -1

What call does the record list for COc1cc(/C=C\c2cc(OC)c(OC)c(OC)c2)cc(N/C=C\C(=O)c2c[nH]c3ccccc23)c1OC ? -1

---

Tested on: UACC-62 melanoma
protocolSummary: NCI-60 one-dose screen, 48 h (100 = growth as untreated, 0 = no growth, -100 = all killed)
conditionDescription: 10 µM unless noted
Compounds without any hit were thinned out: in the full panel of roughly 83,000, 20% have a hit.
// growth lookup, one value per entry
The figure you give is taken to be in %; do not add the unit.

COc1ccc(C(=O)c2cc(OC)c(OC)c(OC)c2)cc1/C=C/C(=O)c1ccc2c(c1)OCO2 | -63.5
O=Nc1c(-c2c(O)[nH]c3ccc([N+](=O)[O-])cc23)[nH]c2ccc(O)cc12 | -34.4
COc1ccc(C2=CC(c3ccc(Oc4ccnc5cc(Cl)ccc45)c(OC)c3)c3c(nc(OC)[nH]c3=O)N2)cc1 (centres undefined) | 51.9

Now look at this entry.
Provide value of growth for this record tested with UACC-62 melanoma: Cc1c(C2=NNC(c3ccc4c(c3)OCO4)C2)[n+]([O-])c2ccccc2[n+]1[O-] (centres undefined) 118

---

System: NCI-H322M lung
protocolSummary: NCI-60 one-dose screen, 48 h (100 = growth as untreated, 0 = no growth, -100 = all killed)
conditionDescription: 10 µM unless noted
The panel holds about 83,000 compounds, 20% with a hit somewhere; the sample as a whole holds those more often. Calls of active or inactive are those of the source. Rule for the calls: active = growth percent below 10; inactive = the rest.
Listed next: entries and their corresponding growth.

Example cases with answers are listed next.
COc1ccc(S(=O)(=O)NCCNc2nccc(-c3c(-c4ccccc4)nc4sccn34)n2)cc1 | 45.9% (inactive)
CC(=O)Oc1cccc(OC(C)=O)c1OC(C)=O | 99.7% (inactive)
CCNCc1ccncc1 | 104% (inactive)

Could you share which growth value was measured for O=C1NC(Cc2c[nH]c3ccccc23)C(=O)N1Cc1ccc(Cl)cc1 (stereo not given) ? 104% (inactive)

Looking for the measured growth of CC[C@H](C)[C@H]1NC(=O)[C@@H](N[C@](C)(O)[C@@H](N)CC(C)C)[C@@H](C)OC(=O)[C@H](Cc2ccc(OC)cc2)N(C)C(=O)[C@@H]2CCCN2C(=O)[C@H](CC(C)C)NC(=O)[C@@H](C)C(=O)[C@H](C(C)C)OC(=O)C[C@@H]1O , can you help? -22.4% (active)

---

Tested on: MOLT-4 leukemia
protocolSummary: NCI-60 one-dose screen, 48 h (100 = growth as untreated, 0 = no growth, -100 = all killed)
conditionDescription: 10 µM unless noted
Compounds without any hit were thinned out: in the full panel of roughly 83,000, 20% have a hit.
// boundary case: growth equal to 30% maps to class 0; strictly smaller maps to class 1

Solved cases below.
CC1CCN(C(=O)CSc2nc3sc4c(c3c(=O)[nH]2)CCCC4)CC1 | class 0
Nc1c(C(=O)Nc2c(Cl)cccc2Cl)sc2nc3c(cc12)CCCCC3 | class 0
O=C(O)c1ccc(-n2cc(CNc3ccc(C(F)(F)F)cc3)c(-c3ccccc3)n2)cc1 | class 0
Cn1c(=O)c2c(nc3n2CCN(CCc2ccc(OCCN4CCOCC4)cc2)C3)n(C)c1=O | class 0
Cc1cc2c(c(=O)o1)C(c1ccc(OC(=O)N3CCOCC3)cc1)C(C#N)=C(N)O2 (stereo not given) | class 0

Does this molecule meet the criterion growth < 30%? O=C(Cc1c(F)cccc1Cl)Nc1ccc(S(=O)(=O)Nc2ncccn2)cc1 class 0

Would you kindly verify if growth of COC1=CC(c2ccc[nH]2)=N/C1=C\c1[nH]c(C)c(C(=O)CCCCC(=O)NCc2ccccc2)c1C is strictly less than 30%? class 0

Take the molecule O=C1N=C(c2c(-c3[nH]c(=O)c4ccc(Br)cc4c3O)c(O)c3ccccc3c2O)C(=O)c2cc(Br)ccc21 and say whether its growth is less than 30%. class 0

Is growth of O=C(NCCc1c[nH]c2ccccc12)C1Cc2ccccc2CN1C(=O)c1ccco1 (stereo not given) strictly below 30%? class 0

Please let me know if CCCCCCCCCCn1cc[n+](C)c1 shows growth below 30%. class 0

Please let me know if CCCCCCCCCCCCCCCCC(Br)C(=O)O (stereo not given) shows growth below 30%. class 0

---

Examples of compounds with documented growth follow.
System: ACHN renal
protocolSummary: NCI-60 one-dose screen, 48 h (100 = growth as untreated, 0 = no growth, -100 = all killed)
conditionDescription: 10 µM unless noted
This is part of a sample that, as a whole, favours compounds with a hit. Of some 83,000 tested, about 20% had one in any assay.
Report only the number, with the unit % understood.

Reference set (8 entries):
O=C(/C=C/CN1CCCCC1)Nc1cc2c(Nc3ccc(F)c(Cl)c3F)ncnc2cc1OCCOC(F)F | 5.75
CCCC(C(=O)OCC)C(C)OC(=O)OCC (stereo unspecified) | 107
Cc1cccc(NC(=O)c2sc3nc4c(cc3c2N)CCC4)c1C | 48.4
O=C1CCCCN1CCCCC#Cc1ccccc1C#Cc1ccccn1 | 86.4
COc1ccc(S(=O)(=O)Nc2cc(/C=C\c3cc(OC)c(OC)c(OC)c3)cc(OC)c2OC)cc1OC | 45.1
CNC(C)=O | 118
COc1ccc(/C(=N/O)c2cc(F)c(F)c(OC)c2F)cc1O | 48.4
O=C(/C=C/CN1CCOCC1)Nc1cc2c(Nc3cccc(Cl)c3F)ncnc2cc1OCCOC(F)F | 22.2

Which growth is reported for this compound? COc1ccc(/C(=N\O)c2cc(OC)c(OC)c(OC)c2)c(OC)c1N 40.5

Given the compound O=[N+]([O-])c1cccc(-c2cc(-c3cc(Br)ccc3O)[nH]n2)c1 , what is its reported growth? 10.2

What measured growth goes with O=C(Cc1c(F)cccc1Cl)Nc1ccc(S(=O)(=O)Nc2ncccn2)cc1 ? 100
